B1: Twister Ribozyme (parent)
chain: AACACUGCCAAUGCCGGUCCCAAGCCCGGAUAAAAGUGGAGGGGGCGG

variants of: B1; assay: self-cleavage, relative activity (ratio to wild type); higher = more cleavage; co-transcriptional
Decision: self-cleavage >= 0.5 yields Criterion met, all other cases yield Criterion not met.

SEQUENCE RECORD	GROUP LABEL
AACACUGCCAAUGCCGGUCCCAAGCCCGGAUCAAAAUGGAGGGGGCGG [A32C G36A]	Criterion not met
AACACUGCCAGUGCCGGUCCCAAGCCCGGAUCAAAGUGGAGGGGGCGG [A11G A32C]	Criterion met
AACACUGCCAAUGCCGGUCCCAAGCCCGGAUAAAAGUGGAUGGGACGG [G41U G45A]	Criterion met
AACACUGCCAAUGCCGGUCCCAGGCCCGGAUAAAAGAGGAGGGGGCGG [A23G U37A]	Criterion not met
AACACUGCCAAUGCCGGUCCCUAGCCCGGAUAAAAGUGGAGCGGGCGG [A22U G42C]	Criterion not met
AACACUGCCAAUGGCGGUCCCAAUCCCGGAUAAAAGUGGAGGGGGCGG [C14G G24U]	Criterion not met
AACACUGCCAAUGCCGGUCCCAAGCCCGGAUAAAAGUUGAGAGGGCGG [G38U G42A]	Criterion not met
ACCACUGCCAAUGCCGGUCCCAAGCCCGGAUACAAGUGGAGGGGGCGG [A2C A33C]	Criterion not met
AACACUGCCAAUGCCGGUCCCAAGCCCGGAUAAAAGUGGAUGCGGCGG [G41U G43C]	Criterion not met
AACACUGCCAAUGCCUGUGCCAAGCCCGGAUAAAAGUGGAGGGGGCGG [G16U C19G]	Criterion not met
AACACUGCCAAUGCCGGUCCCAAGCCCGGAUUAAAGUGGAGGGGGUGG [A32U C46U]	Criterion met
AACACUGCCAAUGCAGGUCCCAAUCCCGGAUAAAAGUGGAGGGGGCGG [C15A G24U]	Criterion not met
AACACUGCCAAUGCCGGUCCCAAGCCCGGAUAGAAGUGGAGGGGGAGG [A33G C46A]	Criterion met
AACACUGCCAAUGCCGAUCCCAAGCCCGGAUAAAAGUGGAGGAGGCGG [G17A G43A]	Criterion not met
AACACUGCCAAUGCCGGUCCCAAUCCCGGAUAACAGUGGAGGGGGCGG [G24U A34C]	Criterion not met
AACACUGCCAAUGCCGGUCCCAAGCCCGGAUAAAAGAGGAGGGGGGGG [U37A C46G]	Criterion met
AACACUGCCAAUGCCGGUCCCAAGCCCGGAUAAAAGUGGAGGGGCCUG [G45C G47U]	Criterion not met
AACACUGCCAAUGCGGGUCCCAAGCCCGGAUAAAAGUGGAGGCGGCGG [C15G G43C]	Criterion not met
AACGCUGCCAAUACCGGUCCCAAGCCCGGAUAAAAGUGGAGGGGGCGG [A4G G13A]	Criterion met
AACACUGCCAAUGACGGUCGCAAGCCCGGAUAAAAGUGGAGGGGGCGG [C14A C20G]	Criterion not met
